Biological target: T1, P974_AMBCA (Amblyomma cajennense, UniProt A0A023FDY8 22-118);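 further: biolayer interferometry on an Octet system: chemokines at several doses tested against tick chemokine-binding proteins, association, equilibrium and dissociation curves fitted to derive Kd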
T1 sequence: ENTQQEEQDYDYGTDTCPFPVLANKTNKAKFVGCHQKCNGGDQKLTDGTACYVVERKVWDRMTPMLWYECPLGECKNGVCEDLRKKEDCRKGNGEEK
Test: BLI
readout_label: Kd (nM)
Expressed in nM, but write only the number.

// known answers, use as guide
{"columns": ["binder", "readout_label", "unit_of_measurement", "numeric_result"],
 "data": [
  ["CCL1_HUMAN (ligand) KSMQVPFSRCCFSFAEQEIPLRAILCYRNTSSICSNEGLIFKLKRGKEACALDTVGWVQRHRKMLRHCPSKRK", "Kd", "nM", 70.5],
  ["CCL18_HUMAN (ligand) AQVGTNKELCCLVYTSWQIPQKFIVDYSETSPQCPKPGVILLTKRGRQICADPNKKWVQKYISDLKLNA", "Kd", "nM", 17]
]}

Input: Any idea what its Kd is? The binder is CCL3_HUMAN (ligand) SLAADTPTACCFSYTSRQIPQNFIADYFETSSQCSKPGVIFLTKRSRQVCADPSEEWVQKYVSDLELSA
Output: 7.97

Input: Another binder to look at: CCL4L1_HUMAN (ligand) APMGSDPPTACCFSYTARKLPRNFVVDYYETSSLCSQPAVVFQTKRGKQVCADPSESWVQEYVYDLELN
Output: 23.2
